- studySystem: GST-CIB1 : F-scrambled peptide (Homo sapiens, UniProt Q99828)
- Construct: made in house; host or cells: BL-21 plus RIL cells (E. coli)
- Sequence (Q99828 whole entry): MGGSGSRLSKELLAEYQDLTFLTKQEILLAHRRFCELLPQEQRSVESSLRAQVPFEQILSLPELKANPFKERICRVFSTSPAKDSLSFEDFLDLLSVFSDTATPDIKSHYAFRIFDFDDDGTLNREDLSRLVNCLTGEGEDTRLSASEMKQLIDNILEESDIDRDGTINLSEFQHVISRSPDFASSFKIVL
- assayProtocol: FP scrambled-peptide counter screen, 1536-well format
- Format: binding
- conditionSet: counterscreen; read-out: IC50 [μM] (counterscreen)
Reported log10 IC50 values for a set of compounds
The common logarithm of IC50 in µM is what is listed.

compound: COc1ccc(NC(=O)c2[nH]c(C)c(C(C)=O)c2C)cc1S(=O)(=O)Nc1ccccc1C#N [NCGC00348145-01]
log10 IC50: 1.60
--
compound: CC1(C)OB(c2ccc(O)c3ncc(N4CCNCC4)cc23)OC1(C)C.O=C(O)C(F)(F)F [NCGC00241053-01]
log10 IC50: 1.30
--
compound: CC1(C)C=CN2C(=O)C3=CCCN3C(=O)[C@@H]2C[C@@]12Nc1ccccc1C2=O [NCGC00380729-01]
log10 IC50: 1.60
--
compound: O=C(c1ccccc1)c1no[n+]([O-])c1C(=O)c1ccccc1 [NCGC00351168-02]
log10 IC50: 1.40
--
compound: CCOC(=O)c1[nH]c2c(c1C)C(=S)CC(c1ccco1)C2.O=C(O)C(F)(F)F (stereo not shown) [NCGC00238571-01]
log10 IC50: 0.85
--
compound: O=C1NC(c2ccc(N3CCOCC3)cc2)(c2ccsc2)CC(O)=C1Sc1ccccc1Cl (stereo not shown) [NCGC00388532-05]
log10 IC50: 1.50
--
compound: CCN1CCN(c2cccc(Nc3nn4c(=O)c5ccccc5nc4s3)c2)CC1.Cl [NCGC00187806-01]
log10 IC50: 1.95
--
compound: CN(C)CCCn1cc(C2=C(c3c[nH]c4ccccc34)C(=O)NC2=O)c2ccccc21 [NCGC00024760-07]
log10 IC50: 1.55

query: Which log10 IC50 is reported with GST-CIB1 : F-scrambled peptide (Homo sapiens, UniProt Q99828) for this entry: Cc1cc(C)nc(NC(=S)N2CCN(c3ccc4nsnc4c3)CC2)c1.O=C(O)C(F)(F)F [NCGC00244160-01] ?
result: 1.60

query: Please give the result for Cc1ccc(CNc2ncnc3ccc(-c4ccc([C@@H](C)O)o4)cc23)o1 [NCGC00189251-01] too.
result: 1.60

query: Please give the result for CCOC(=O)c1nn(-c2ccc(OC)cc2)c(=O)c2c(N)scc12 [NCGC00053250-03] too.
result: 1.30

query: Please give the result for O=C(O)C(F)(F)F.O=S(=O)(Nc1nccs1)c1ccc(NCc2cc(F)cc(Cl)c2O)cc1 [NCGC00273967-01] too.
result: 1.60

query: Please give the result for Cc1coc2c1C(=O)C(=O)c1c-2ccc2c(C)cccc12 [NCGC00247624-03] too.
result: 1.65

query: Please give the result for CCN(CC)CCN(Cc1ccc(-c2ccc(C(F)(F)F)cc2)cc1)C(=O)Cn1c(SCc2ccc(F)cc2)nc(=O)c2c1CCC2 [NCGC00386337-05] too.
result: 1.50

query: Please give the result for Cc1ccc(C(=O)c2no[n+]([O-])c2C(=O)c2ccc(C)cc2)cc1.O=C(O)C(F)(F)F [NCGC00351163-01] too.
result: 0.60

query: Please give the result for CCOC(=O)c1ccc(O)c2ncc(N3CCC(C(=N)N)CC3)cc12.O=C(O)C(F)(F)F [NCGC00241051-01] too.
result: 0.85
